Data origin: PubChem BioAssay (NCI)

- Test system: HT29 colon
- assay_protocol: NCI-60 one-dose screen, 48 h
- measurement_parameters: 10 µM
About 83,000 compounds went through this panel and 20% of them were active in at least one assay; those are over-represented in the sample as a whole. Calls of active or inactive are those of the source. How the source made its calls: active means growth percent below 10; inactive means the rest.
Valid outcomes are listed here; reply with one: 1 = active, 0 = inactive

Use these answered entries as a reference point.
INSERT INTO measurements (molecule, label_value) VALUES
  ('CC[N+](CC)=c1ccc2nc3c(cc(NCc4ccccc4)c4ccccc43)oc-2c1', 1),
  ('Cc1ccc(NCCN(C)CC(C)O)c2c(=O)c3ccc(Cl)cc3sc12 (centres undefined)', 1),
  ('CC(=O)[C@H]1CC[C@]2(C)[C@@H]1CC[C@@H]1[C@@]3(C)CC(CCC#N)(CCC#N)C(=O)C(C)(C)[C@@H]3CC[C@]12C', 0),
  ('Cc1ccc2nc(Cl)c(-c3nc4ccccc4o3)cc2c1', 0),
  ('COC(=O)C1OC1c1cc([N+](=O)[O-])ccc1OC (centres undefined)', 0),
  ('CC(C)(C)OC(=O)N1CCc2c(sc3ncnc(N/N=C/c4ccccc4Br)c23)C1', 0),
  ('NC(CSC(c1ccccc1)(c1ccccc1)c1cccc2ccccc12)C(=O)O (centres undefined)', 0),
  ('COc1cc2c3c(n(C4CCNCC4)c(=O)c2cc1OC)-c1cc2c(cc1C3=O)OCO2', 1),
  ('COc1cccc(N=Nc2cccc(OC)c2)c1', 0),
  ('c1ccc2c(c1)Cc1ccccc1N2CCN1CCCCC1', 0);

Prompt: Could you check what this test reported for CCOC(=O)C1=CSC2=NC3=C(CCC/C3=C\c3ccc(Cl)cc3)C(c3ccc(Cl)cc3)N12 (centres undefined) ?
Completion: 0

Prompt: Could you check what this test reported for NC(=O)c1cccc(-n2ccc3cc(NC(=O)Nc4ccc(Cl)c(C(F)(F)F)c4)ccc32)n1 ?
Completion: 0

Prompt: Could you check what this test reported for Cc1ccc(NCCN(C)CC(C)O)c2c(=O)c3ccccc3sc12 (centres undefined) ?
Completion: 1

---

growth values for the compounds below.
- Test system: T-47D breast
- assay_protocol: NCI-60 one-dose screen, 48 h (100 = growth as untreated, 0 = no growth, -100 = all killed)
- measurement_parameters: 10 µM
- Procedure: Growth inhibition of the T-47D human tumor cell line is measured as a screen for anti-cancer activity. Cells are grown in 96 well plates and exposed to the test compound for 48 hours. Compounds are tested at a single concentration, which is 10^-5 M for most compounds. The reported endpoint is percent growth (GI% or GIPRCNT), where numbers from 0 - 100% represent growth inhibition, and numbers from -100% - 0 represent cell death. For example, a value of 40 represents 60% growth inhibition. […]
Compounds without any hit were thinned out: in the full panel of roughly 83,000, 20% have a hit.
Answer format: numeric, % implied, no suffix.

The following compounds have reported results that may help.
INSERT INTO measurements (compound, parameter, recorded_measurement) VALUES
  ('COc1ccc(-c2nn(-c3cccc(Cl)c3)cc2-c2c(C#N)c(N)n(N)c(=O)c2C#N)cc1', 'growth', 48.7),
  ('Nc1ncnc2c1ncn2C1(CO)OCC(O)C(O)C1O (configuration not stated)', 'growth', 96.2),
  ('CNC(=O)c1cn(C2CC2)c2cc(N3CCN(C(=O)c4cc(OC)c(OC)c(OC)c4)CC3)c(F)cc2c1=O', 'growth', 79),
  ('COc1ccc2c(c1)OC(N)=C(C#N)C2c1cc(OC)c(OC)c(OC)c1 (configuration not stated)', 'growth', 16.7),
  ('COc1ccc(-c2nn(-c3cccc(Cl)c3)cc2-c2cc(-c3cccs3)[nH]c(=S)n2)cc1', 'growth', 41.6),
  ('C=CCN(CC=C)C(=O)[C@H](CC)[C@@H]1CC[C@@H](C)[C@@H]([C@H](C)[C@@H](O)[C@@H](C)C(=O)[C@H](CC)C2O[C@]3(C=C[C@@H](O)[C@]4(CC[C@@](C)([C@H]5CC[C@](O)(CC)[C@H](C)O5)O4)O3)[C@H](C)C[C@@H]2C)O1 (some centres not stated)', 'growth', 9.12);

Prompt: Fill in growth for record O=C(Nc1ccc(OS(=O)(=O)c2ccccc2)cc1)C1CCCCC1
Completion: 85.4

Prompt: Fill in growth for record COc1ccc(C(=O)c2cc3c(OC)c(OC)c(OC)cc3[nH]2)cc1
Completion: 34.9

Prompt: Fill in growth for record OCC1OC2C(NC(=S)N2c2ccccc2)C(O)C1O (configuration not stated)
Completion: 108

Prompt: Fill in growth for record O=C(CSc1nccc(Nc2cccc3ccccc23)n1)c1ccc(Cl)cc1
Completion: 76.1

Prompt: Fill in growth for record COc1ccc2nc(Cl)c(Cn3nnc(Cc4ccccc4)n3)cc2c1
Completion: 2.44
